Record form. Attribute: activity change (PNC), negative = inhibition. Fill in for each entry.
# method.description: High Content Assay for Compounds that inhibit the Assembly of the Perinucleolar Compartment;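 note: plate controls were DMSO wells for no effect and camptothecin positive control wells for full effect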
# test.parameters: PC3M PTB-GFP, PNC prevalence imaging, 16 h; at 10 µM; stronger effect = lower value
In all, about 140,000 compounds went through this assay and about 4,300 (3.1%) were called active. Inconclusive results (about 21%) are left out. The sample as a whole holds a higher share of actives than the screen did.
Give bare numbers, in %.

For orientation, consider the following solved cases.
>>> df
                                   molecule  quantity_unit  experimental_result
0  CCn1cc(CNC(=O)c2cc([N+](=O)[O-])c(C)c([N+](=O)[O-])c2)cn1              %                 4.07
1  COc1cc(/C=C(/NC(=O)c2ccc(Cl)cc2Cl)C(=O)O)cc(OC)c1OC              %                -21.4
2  Cc1cc(C(=O)COC(=O)CNC(=O)c2ccc(F)cc2)c(C)n1Cc1ccco1              %                 8.75

For the 5 molecules below, give their activity change (PNC), negative = inhibition values.
1. N#CC1=C(N)Oc2c(sc3ccccc23)C1c1ccco1 (centres undefined)
2. N#Cc1ccsc1NC(=O)CN1CCCCC1
3. Cc1cc(=O)n2nc(N3CCCC(C(=O)NCCC4=CCCCC4)C3)sc2n1 (centres undefined)
4. COc1cc(C2C(N3C(=O)c4ccccc4C3=O)C(=O)N2c2ccc(C)c(C)c2)cc(OC)c1OC (centres undefined)
5. CC(=O)N/C(=C/c1ccc(OC(F)F)cc1)C(=O)O

A)
-91.1
8.2
6.76
31.7
-25.2

Q) Quick check: activity change (PNC), negative = inhibition of COc1ccccc1N1CCN(CCCCOc2ccc(F)cc2)CC1 ?
A) 11
